test system: RIPK5; conditions: concentration: 1 μM, replicates: in singlicate; n = 1;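 note: KINOMEscan kinase panel screen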
# %Inh per record follows
parameter: %Inh (%)

compound: O=c1cc(N2CCOCC2)nc2n(Cc3cccc(Cl)c3Cl)c3ccccc3n12 [GSK2299009]
unit_spec: %
numeric_result: 0

compound: CC(C)c1cc(-c2ccc3c(N)n[nH]c3c2)nc(N)n1 [GSK2250882]
unit_spec: %
numeric_result: 0

compound: CS(=O)(=O)CCNCc1nc(-c2ccc3ncnc(Nc4ccc(OCc5ccccc5)c(Cl)c4)c3c2)cs1.Cl [GW582764]
unit_spec: %
numeric_result: 0

compound: CCn1c(-c2ccccc2)nc2cnccc21 [SB-733416]
unit_spec: %
numeric_result: 5

compound: Nc1ncnc2occ(-c3ccc4c(c3)CCN4C(=O)Cc3cc(F)ccc3F)c12 [GSK2645446]
unit_spec: %
numeric_result: 12

compound: COc1cccc(NC(=O)Nc2ccc(C)c(-c3ccc(C(=O)Nc4ccncc4)cc3)c2)c1 [GSK1398474]
unit_spec: %
numeric_result: 0

compound: COc1ccc(Nc2nccc(N3CCC(NC(=O)c4cc5ccccc5s4)C3)n2)cc1 (stereo not drawn) [GSK1379738]
unit_spec: %
numeric_result: 7

compound: Fc1ccc(-c2nc3n(c2-c2ccncc2)CCS3)cc1 [GI98581]
unit_spec: %
numeric_result: 0

compound: Cc1nccc(-c2c(-c3ccc(F)cc3)ncn2CCCN2CCOCC2)n1.Cl [SB-282975]
unit_spec: %
numeric_result: 13

====

system: PAK6; details: concentration: 1 μM, replicates: in singlicate; n = 1
In this section we review reported %Inh values for a set of compounds.
parameter: %Inh

compound: COc1ccc(Nc2nccc(-c3ccc(NC(=O)c4cc5cc(F)ccc5[nH]4)cc3)n2)cc1 [GSK1229496]
target_entity: PAK6
parameter: %Inh
result: 0%
//
compound: CCc1ccc(-c2ccc3c(c2)-c2n[nH]cc2S(=O)(=O)N3C)cc1
target_entity: PAK6
parameter: %Inh
result: 0%
//
compound: Nc1cccc(-c2ccc3c(N)n[nH]c3c2)n1 [GSK2192730]
target_entity: PAK6
parameter: %Inh
result: 8%
//
compound: CS(=O)(=O)Cc1ccc(Nc2nccc(-c3c(-c4cccc(NC(=O)C5CCCCC5)c4)nn4ncccc34)n2)cc1 [GSK350559]
target_entity: PAK6
parameter: %Inh
result: 19%
//
compound: O=C(Nc1n[nH]c2nc(-c3cccs3)c(Br)cc12)C1CC1 [SB-735297]
target_entity: PAK6
parameter: %Inh
result: 3%
//
compound: Cc1ccc(NC(=O)Nc2ccccc2F)cc1-c1ccc(C(=O)Nc2ccncc2)cc1 [GSK1398477]
target_entity: PAK6
parameter: %Inh
result: 5%
//
compound: Cc1ccccc1-c1cc(-c2c[nH]nc2-c2ccccn2)ccn1 [GW680061]
target_entity: PAK6
parameter: %Inh
result: 0%
//
compound: O=C1NC(=O)C(c2ccc(Cl)cc2)=C1Nc1ccc(O)cc1 [SB-340867]
target_entity: PAK6
parameter: %Inh
result: 0%
//
compound: COC(=O)C(NC(=O)NC1CCN(c2ccnc(Nc3ccc(F)cc3)n2)C1)c1ccccc1 (stereo not drawn) [GSK1379712]
target_entity: PAK6
parameter: %Inh
result: 0%

====

// values below are reported %Inh
tested on: ERK4; construct: gene MAPK4; details: concentration: 1 μM, replicates: in singlicate; n = 1

compound: CC[C@@H]1CO[C@H](C(=O)Nc2ccccc2)CN1c1cc(-c2ccc3c(N)n[nH]c3c2)nc(NC)n1
%Inh / %: 42
//
compound: COc1ccc2cc(-c3nc(-c4ccccc4C(C)C)[nH]c3-c3ccncc3)ccc2c1
%Inh / %: 15
//
compound: O=c1cc(N2CCOCC2)nc2n(Cc3cccc(Cl)c3Cl)c3ccccc3n12
%Inh / %: 45
//
compound: CNc1nc(-c2ccc3c(N)n[nH]c3c2)cc(N2C[C@@H](C(=O)Nc3ccccc3)CC[C@H]2C)n1
%Inh / %: 0
//
compound: COc1ccc(Nc2nccc(N3CCC(NC(=O)C(C)c4ccc(Cl)cc4)C3)n2)cc1 (centres unmarked)
%Inh / %: 0
//
compound: COc1cccc(C2=C(Nc3cc(Cl)c(O)c(Cl)c3)C(=O)NC2=O)c1
%Inh / %: 0
//
compound: Cc1cnc(N)c(/C=C/c2cncc(C(=O)NCCc3ccc(Cl)cc3Cl)c2)c1.Cl
%Inh / %: 6
//
compound: Cc1ccc(NC(=O)Nc2ccc(Cl)cc2)cc1-c1ccc(C(=O)Nc2ccncc2)cc1
%Inh / %: 3

====

Listed here: items and their measured %Inh.
system: SRPK3; conditions: concentration: 1 μM, replicates: in singlicate; n = 1
parameter: %Inh (%)

molecule: CNc1nc(-c2ccc3c(N)n[nH]c3c2)cc(N2C[C@@H](C(=O)Nc3ccccc3)CC[C@H]2C)n1
numeric_result: 0
//
molecule: Cc1ccccc1Cn1ccn2c(=O)cc(N3CCOCC3)nc12
numeric_result: 0
//
molecule: CC(C)c1ccc(O)cc1Nc1ccnc2ccc(C(F)(F)F)cc12
numeric_result: 16
//
molecule: COC(=O)c1cccc(NC(=O)NC2CCN(c3ccnc(Nc4ccc(OC)cc4)n3)C2)c1 (centres unmarked)
numeric_result: 0
//
molecule: COC(=O)C(Cc1ccccc1)NC(=O)NC1CCN(c2ccnc(Nc3ccc(F)cc3)n2)C1 (centres unmarked)
numeric_result: 0
//
molecule: Cc1ccc(NC(=O)Nc2ccc(Cl)c(C(F)(F)F)c2)cc1-c1ccc(C(=O)Nc2ccncc2)cc1
numeric_result: 23
//
molecule: COc1ccc(Nc2nccc(N3CCC(NC(=O)c4cc5ccccc5s4)C3)n2)cc1 (centres unmarked)
numeric_result: 0
//
molecule: O=c1cc(N2CCOCC2)nc2n(Cc3cccc(Cl)c3Cl)c3ccccc3n12
numeric_result: 15

====

Catalogue of %Inh readings, one per entry.
test system: ROCK1; details: concentration: 1 μM, replicates: in singlicate; n = 1

structure_as_smiles: O=c1cc(N2CCOCC2)nc2n(Cc3ccccc3F)ccn12
%Inh [%]: 0
--
structure_as_smiles: Cc1cnc(N)c(/C=C/c2cncc(C(=O)NCCc3ccc(Cl)cc3Cl)c2)c1.Cl
%Inh [%]: 71
--
structure_as_smiles: FC(F)(F)c1ccccc1-c1cc(-c2c[nH]nc2-c2ccccn2)ccn1
%Inh [%]: 9
--
structure_as_smiles: COc1cc2ncnc(Nc3cccc(Br)c3)c2cc1OC.Cl
%Inh [%]: 37
--
structure_as_smiles: CC(=O)c1c(C)c2cnc(Nc3ccc(N4CCNCC4)cn3)nc2n(C2CCCC2)c1=O
%Inh [%]: 0

====

system: PRKCQ; details: concentration: 1 μM, replicates: in singlicate; n = 1
Each entry below lists one item and its recorded %Inh value.

compound: CC(=O)c1c(C)c2cnc(Nc3ccn(C)n3)nc2n(C2CCCC2)c1=O
unit_spec: %
%Inh: 0
//
compound: Cn1cnc2c(N)ncnc21
unit_spec: %
%Inh: 0
//
compound: COC(=O)C(NC(=O)NC1CCN(c2ccnc(Nc3ccc(F)cc3)n2)C1)c1ccccc1 (stereo not shown)
unit_spec: %
%Inh: 3
//
compound: Cc1cnc(N)c(/C=C/c2cncc(C(=O)NCCc3ccc(Cl)cc3Cl)c2)c1.Cl
unit_spec: %
%Inh: 0
//
compound: CCCCc1nn2ncccc2c1-c1ccnc(NC2CC2)n1
unit_spec: %
%Inh: 0
//
compound: COc1ccc(Nc2nccc(N3CCC(NC(=O)c4cc5ccccc5s4)C3)n2)cc1 (stereo not shown)
unit_spec: %
%Inh: 7
//
compound: CNc1nc(-c2ccc3c(N)n[nH]c3c2)cc(N2C[C@@H](C(=O)Nc3ccccc3)CC[C@H]2C)n1
unit_spec: %
%Inh: 0
//
compound: Cn1cncc1-c1cc2c(Nc3ccc(OCc4ccccc4)cc3)ncnc2cn1
unit_spec: %
%Inh: 0
//
compound: FC(F)(F)c1ccccc1-c1cc(-c2c[nH]nc2-c2ccccn2)ccn1
unit_spec: %
%Inh: 0
//
compound: COc1ccc(Nc2nccc(N3CCC(NC(=O)C(C)c4ccc(Cl)cc4)C3)n2)cc1 (stereo not shown)
unit_spec: %
%Inh: 23
//
compound: COc1ccc(CSc2nnc(-c3ccc4c(c3)CCO4)o2)cc1
unit_spec: %
%Inh: 0
//
compound: Cc1nccc(-c2c(-c3ccc(F)cc3)ncn2CCCN2CCOCC2)n1.Cl
unit_spec: %
%Inh: 14
//
compound: COc1cc2ncnc(Nc3cccc(Br)c3)c2cc1OC.Cl
unit_spec: %
%Inh: 4
//
compound: CS(=O)(=O)CCNCc1nc(-c2ccc3ncnc(Nc4ccc(OCc5ccccc5)c(Cl)c4)c3c2)cs1.Cl
unit_spec: %
%Inh: 3
//
compound: Nc1cccc(-c2ccc3c(N)n[nH]c3c2)n1
unit_spec: %
%Inh: 10
//
compound: COc1cccc(NC(=O)Nc2ccc(C)c(-c3ccc(C(=O)Nc4ccncc4)cc3)c2)c1
unit_spec: %
%Inh: 19
//
compound: Cc1ccc(NC(=O)c2ccc(Cl)cc2)cc1-c1ccc(C(=O)Nc2ccncc2)cc1
unit_spec: %
%Inh: 0
//
compound: CNc1cc(-c2ccc3c(N)n[nH]c3c2)nc(N)n1
unit_spec: %
%Inh: 0
//
compound: Fc1ccc(-c2nc[nH]c2-c2ccncc2)cc1
unit_spec: %
%Inh: 0
//
compound: Cc1cccc2c(-c3ccncn3)c(-c3ccc(F)cc3)nn12
unit_spec: %
%Inh: 9
//
compound: COc1nccc(-c2c(-c3ccc(F)cc3)ncn2CCCN2CCOCC2)n1
unit_spec: %
%Inh: 0
//
compound: CCn1c(-c2c(N)noc2C)nc2cnccc21
unit_spec: %
%Inh: 32
//
compound: CS(=O)(=O)Cc1ccc(Nc2nccc(-c3c(-c4cccc(NC(=O)C5CCCCC5)c4)nn4ncccc34)n2)cc1
unit_spec: %
%Inh: 25
//
compound: COC(=O)c1cccc(NC(=O)NC2CCN(c3ccnc(Nc4ccc(F)cc4)n3)C2)c1 (stereo not shown)
unit_spec: %
%Inh: 0
//
compound: Nc1ncnc2occ(-c3ccc4c(c3)CCN4C(=O)Cc3cc(F)ccc3F)c12
unit_spec: %
%Inh: 0
//
compound: CC(=O)c1cccc(NC(=O)NC2CCN(c3ccnc(Nc4ccc(F)cc4)n3)C2)c1 (stereo not shown)
unit_spec: %
%Inh: 27
//
compound: CC(=O)c1c(C)c2cnc(Nc3ccc(N4CCNCC4)cn3)nc2n(C2CCCC2)c1=O
unit_spec: %
%Inh: 0
//
compound: Cc1ccc(NC(=O)Nc2ccc(Cl)cc2)cc1-c1ccc(C(=O)Nc2ccncc2)cc1
unit_spec: %
%Inh: 10
//
compound: Cc1c(Cn2c(C)c(C)n3c(=O)cc(N4CCOCC4)nc23)cccc1C(F)(F)F
unit_spec: %
%Inh: 8
//
compound: CN1c2ccc(-c3ccc(C(N)=O)cc3)cc2-c2[nH]ncc2S1(=O)=O
unit_spec: %
%Inh: 5
//
compound: CCn1c(-c2ccccc2)nc2cnccc21
unit_spec: %
%Inh: 44
//
compound: O=C1NC(=O)C(c2ccc(Cl)cc2)=C1Nc1cccc(Cl)c1
unit_spec: %
%Inh: 11
//
compound: COc1ccc2cc(-c3nc(-c4ccccc4C(C)C)[nH]c3-c3ccncc3)ccc2c1
unit_spec: %
%Inh: 54
//
compound: Fc1ccc(-c2nc3n(c2-c2ccncc2)CCS3)cc1
unit_spec: %
%Inh: 21
//
compound: CC(C)c1ccc(O)cc1Nc1ccnc2ccc(C(F)(F)F)cc12
unit_spec: %
%Inh: 0
//
compound: CSc1ccc(-c2nc3n(c2-c2ccncc2)CCC3)cc1
unit_spec: %
%Inh: 0
//
compound: O=C(Nc1n[nH]c2cc(-c3ccsc3)ccc12)C1CC1
unit_spec: %
%Inh: 41

Hello, the source for this data is paper PMC5540273, in case you need it.
